- test_description: Solid state by X-ray powder diffraction
- Assay type: physicochemical
- conditions_used: * indicates absence of crystalline API; monohydrochloride
Where a name gives a salt, the structure may show the parent alone.
property_measured: Solid state / Polymorphy (X-Ray, XRPD)

{"compound": "CC(C)NC[C@@H](C(=O)N1CCN(c2ncnc3c2[C@H](C)C[C@H]3O)CC1)c1ccc(Cl)cc1 [Composition 141210421, ipatasertib monohydrochloride]", "Solid state / Polymorphy (X-Ray, XRPD)": "amorph.*"}
{"compound": "CC(C)NC[C@@H](C(=O)N1CCN(c2ncnc3c2[C@H](C)C[C@H]3O)CC1)c1ccc(Cl)cc1 [Composition 141210425, ipatasertib monohydrochloride]", "Solid state / Polymorphy (X-Ray, XRPD)": "amorph.*"}
{"compound": "CC(C)NC[C@@H](C(=O)N1CCN(c2ncnc3c2[C@H](C)C[C@H]3O)CC1)c1ccc(Cl)cc1 [Composition 141210422, ipatasertib monohydrochloride]", "Solid state / Polymorphy (X-Ray, XRPD)": "amorph.*"}
{"compound": "CC(C)NC[C@@H](C(=O)N1CCN(c2ncnc3c2[C@H](C)C[C@H]3O)CC1)c1ccc(Cl)cc1 [Composition 140910416, ipatasertib monohydrochloride]", "Solid state / Polymorphy (X-Ray, XRPD)": "amorph.*"}
{"compound": "CC(C)NC[C@@H](C(=O)N1CCN(c2ncnc3c2[C@H](C)C[C@H]3O)CC1)c1ccc(Cl)cc1 [Composition 141210426, ipatasertib monohydrochloride]", "Solid state / Polymorphy (X-Ray, XRPD)": "amorph.*"}
{"compound": "CC(C)NC[C@@H](C(=O)N1CCN(c2ncnc3c2[C@H](C)C[C@H]3O)CC1)c1ccc(Cl)cc1 [Composition 140910419, ipatasertib monohydrochloride]", "Solid state / Polymorphy (X-Ray, XRPD)": "amorph.*"}

Now consider the entry below.
Endpoint output: Solid state / Polymorphy (X-Ray, XRPD) of CC(C)NC[C@@H](C(=O)N1CCN(c2ncnc3c2[C@H](C)C[C@H]3O)CC1)c1ccc(Cl)cc1 [Composition 140110403, ipatasertib monohydrochloride] . Value?
amorphous*

====

- test_description: Particle size distribution (d10, d50, d90) by laser diffraction
- Format: physicochemical
- conditions_used: spray dried amorphous ipatasertib monohydrochloride powder
Structures can show the parent of a compound that is named as a salt.
property_measured: Particle size d90 (μm)

{"molecule": "CC(C)NC[C@@H](C(=O)N1CCN(c2ncnc3c2[C@H](C)C[C@H]3O)CC1)c1ccc(Cl)cc1 [Composition 140110406, ipatasertib monohydrochloride]", "property_measured": "Particle size d90", "numeric_value": 53}
{"molecule": "CC(C)NC[C@@H](C(=O)N1CCN(c2ncnc3c2[C@H](C)C[C@H]3O)CC1)c1ccc(Cl)cc1 [Composition 140910415, ipatasertib monohydrochloride]", "property_measured": "Particle size d90", "numeric_value": 56}
{"molecule": "CC(C)NC[C@@H](C(=O)N1CCN(c2ncnc3c2[C@H](C)C[C@H]3O)CC1)c1ccc(Cl)cc1 [Composition 140110402, ipatasertib monohydrochloride]", "property_measured": "Particle size d90", "numeric_value": 46}
{"molecule": "CC(C)NC[C@@H](C(=O)N1CCN(c2ncnc3c2[C@H](C)C[C@H]3O)CC1)c1ccc(Cl)cc1 [Composition 141210425, ipatasertib monohydrochloride]", "property_measured": "Particle size d90", "numeric_value": 80}
{"molecule": "CC(C)NC[C@@H](C(=O)N1CCN(c2ncnc3c2[C@H](C)C[C@H]3O)CC1)c1ccc(Cl)cc1 [Composition 140110408, ipatasertib monohydrochloride]", "property_measured": "Particle size d90", "numeric_value": 58}
